- assay remarks: yeast display, Sf9 membrane polyspecificity reagent, FACS + sequencing; frameworks hold sequencing errors
property: polyreactivity (PSR sort gate)

residue_codes=QVQLVESGGGLVQAGGSLRLSCAATGRIFGQYAMGWYRQAPGKESDFVAVISKRGGRTYYADSVMGRFTISRDNAKNTVYLQMNSLKPEDTAVYYCAAEYYPHDGAQYEYWGQGTQVTVSS readout_value="high polyreactivity"
residue_codes=QVQLVESGGGLVQAGGSLRLSCAASGRIFGVYAMGWYRQAPGKERELVAAISFSGGRTYYADSVKGRFTISRDNAKNTVYLQMNSLKAEDTAVYDCAALGPYDWLWAGDYWGQGTQVTVSS readout_value="low polyreactivity"
residue_codes=QVQLVDSGGGLVQAGGSLRLSCAASGINFASYAMGWYRQAPGKEMEIVAAISRSGSSTYYADSVKGRFTISRDNAKYTVYLQMNSLKPEDTAVYYCARARSGGSHREYYWGQGTQVTVSS readout_value="high polyreactivity"
residue_codes=QVQLVESGGGLVQAGGSLRLSCAASGNISPDYGMGWYRQAPGKERELVAVIRWSDDSTYYADSVKGRFTISRDYAKNSVYLQMNSLKPEDTAVYYCSTDDYDAIDLDYWGQGTQVTVSS readout_value="low polyreactivity"

###

- assay remarks: yeast display, Sf9 membrane polyspecificity reagent, FACS + sequencing; frameworks hold sequencing errors
property: polyreactivity (PSR sort gate)

residue_codes=QVQLVESGGGLVQAGGSLRLSCAASGFTFSSNAMGWYRQAPGKERELVAAISFNSTSTYYADSVKGRFTISRDNAKNTVYLQMNSLKPEDTAVYYCAADVPRVQSEPEYDYWGQGTQVTVSS readout_value="low polyreactivity"
residue_codes=QVQLVESGGGLVQAGGSLRLSCAASGITLGRYAMGWYRQAPGKERELVAAISRSGGSTYYADSVKGRFTISRDNEKNTVYLLMNSLKPEDTAVYYCNRRVYPTSDYDYWGQGTQVTVSS readout_value="high polyreactivity"
residue_codes=QVQLVESGGGLVQAGGSLRLSCAASGFIFTANAMGWYRQAPGKESELVANINRSGDSTYYADSVKGRFTISRDNAKNTVYLQMNSLKPEDTAVYYCNKDWHSQVFSAYNSYDYWGQGTQVTVSS readout_value="low polyreactivity"
residue_codes=QVQLVESGGGLVQAGGSLRLSCAASGSIFKPYAMGWYRQAPGKERELVAAINRGGTSTYYADSVKGRFTISRDNAKNTVYLQMISLKPEDTAVYYCAAPNRYSVPMYYWGQGTQVTVSS readout_value="low polyreactivity"
residue_codes=QVQLVESGGGLVQAGGSLRLSCAAYGIIFYYYAMGWYRQAPGKERELVAAITGTGSRTYYADSVKGRFTISRDNAKNTVYLQMNSLKPEDTAVYYCNARSFATGSEVPARGYWGQGTQVTVSS readout_value="high polyreactivity"
residue_codes=QVQLEESGGGLVQAGGSLRLSCAASGFTFGSYAMGWYRQAPGKEREFVAAISLGGARTYYADSVKGRFTMSRDNAKNTVYLQMHSLKPEDTAVYYGNARGIGRSTKWSSRDYWGQGTQVTVSS readout_value="high polyreactivity"
residue_codes=QVQLVESGGRLVQAGGSLRLLGAASGRIIYYNAMGWYRPAPGKERELVAAISSIGGSTYADSVKGRFTISRDNAKNTVYLQMNSLKPEDTAVYYCAADGFKRLYTQVAHVRYDYWGQGTQVTVSS readout_value="low polyreactivity"
residue_codes=QVKLEDSGGGLVQAGGSLRLSCAASGSTFEKYVMGWYRQAPGKERELVAAITYSGDSTYYADSVKGRFTISRDNAKNTVYLQMNSLKPEDTAVYYCAAKTTRTSIPRKGRGYYYWGQGTQVTVSS readout_value="high polyreactivity"
residue_codes=QVQLVESGGGLVQAGGSLRLSCAAYGSTFYHKAMGWYRQAPGKERELVARITRGGSTDYADSVKGRFTISRDNAKNTVYLQMNSRKPEDTAVYYCAAAIGHFERFYWGQGTQVTVSS readout_value="low polyreactivity"

INPUT: # polyreactivity (PSR sort gate) lookup, item `QVQLVESGGGLVQAGGSLRLSCAASGSTFSSNAMGWYRQAPGKERELVAAIDRGGSTYYADSVKGRFTISRDNAKNTVYLQMNSLKPEDTAVYYCAKGFDFRRRYDYWGQGTQVTVSS`
OUTPUT: low polyreactivity
